Values from PubChem BioAssay AID777

TARGET ENTITY: Cytochrome P450 2C9 (Homo sapiens) (UniProt P11712)
Sequence (P11712 whole entry, looked up): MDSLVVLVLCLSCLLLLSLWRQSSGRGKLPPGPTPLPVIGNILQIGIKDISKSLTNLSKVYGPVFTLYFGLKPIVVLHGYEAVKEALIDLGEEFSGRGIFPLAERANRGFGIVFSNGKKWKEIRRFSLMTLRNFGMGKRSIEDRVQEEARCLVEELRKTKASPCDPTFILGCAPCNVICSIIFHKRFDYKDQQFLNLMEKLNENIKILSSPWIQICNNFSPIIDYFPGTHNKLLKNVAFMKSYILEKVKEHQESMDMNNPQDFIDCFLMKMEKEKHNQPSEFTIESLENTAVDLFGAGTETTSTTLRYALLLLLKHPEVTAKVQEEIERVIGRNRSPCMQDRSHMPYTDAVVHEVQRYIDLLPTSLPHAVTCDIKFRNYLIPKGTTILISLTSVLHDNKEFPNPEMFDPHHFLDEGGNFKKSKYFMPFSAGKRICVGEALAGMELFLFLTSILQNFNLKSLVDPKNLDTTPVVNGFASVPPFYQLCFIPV
PROTOCOL TEXT: blockers of cytochrome P450 2C9 activity – biochemical, luminescence, ADME assay, primary screen (AID 777)
CONDITION DESCRIPTION: CYP2C9 Supersomes, luciferin-H conversion, at 5 µM
Among all 96,000 compounds or so, about 19,000 (20%) were called active.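 How the source made its calls: active means blocking of liver enzyme CYP2C9 beyond about 50% at 5 µM (limit read from the data); inactive means the rest.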 A selection follows.
I would appreciate it if you answered using one of these outcomes: 1.0 = active, 0.0 = inactive

Data request: Per the records of this test, what outcome belongs to "O=C(Cn1c(-c2ccc(Cl)cc2)noc1=O)N1CCN(c2ccccc2F)CC1" ?
Data returned: 0.0

Data request: Per the records of this test, what outcome belongs to "COCCn1c(CN2CCC(Cc3ccccc3)CC2)nc2c1c(=O)n(C)c(=O)n2C" ?
Data returned: 1.0

Data request: Per the records of this test, what outcome belongs to "CCN1CCN(Cc2nc3c(c(=O)n(C)c(=O)n3C)n2CC(=O)c2ccccc2)CC1" ?
Data returned: 0.0

Data request: Per the records of this test, what outcome belongs to "Cc1ccccc1-n1nc(C)c2cc(C(=O)NC3CC3)sc21" ?
Data returned: 0.0

Data request: Per the records of this test, what outcome belongs to "COc1ccc(CNC(=O)C2CCN(S(=O)(=O)N3CCOCC3)CC2)cc1" ?
Data returned: 0.0

Data request: Per the records of this test, what outcome belongs to "CCCCn1c(CCCNC(=O)CC)nc2ccccc21" ?
Data returned: 0.0

Data request: Per the records of this test, what outcome belongs to "CCOC(=O)N1CCN(Cc2nc3c(c(=O)n(C)c(=O)n3C)n2Cc2ccccc2)CC1" ?
Data returned: 0.0

Data request: Per the records of this test, what outcome belongs to "Cc1cc(C)c(C)c(S(=O)(=O)Nc2ccc(O)cc2)c1C" ?
Data returned: 0.0

Data request: Per the records of this test, what outcome belongs to "C=CCOc1nc2c(c(=O)n(C)c(=O)n2C)n1Cc1ccc(Cl)cc1Cl" ?
Data returned: 0.0

Data request: Per the records of this test, what outcome belongs to "CCOC(=O)N1CCN(C(=O)c2cnc3n(c2=O)CCS3)CC1" ?
Data returned: 0.0

Data request: Per the records of this test, what outcome belongs to "COC(=O)c1ccc(NC(=O)c2ccco2)cc1" ?
Data returned: 0.0

Data request: Per the records of this test, what outcome belongs to "CC(C)CCn1c(CN(C)Cc2ccccc2)nc2c1c(=O)n(C)c(=O)n2C" ?
Data returned: 1.0

Data request: Per the records of this test, what outcome belongs to "CC(C)(C)NC(=O)c1cc(NC(=O)c2ccco2)cc(NC(=O)c2ccco2)c1" ?
Data returned: 1.0

Data request: Per the records of this test, what outcome belongs to "CC(C)Cc1oc(C(=O)O)cc1CN" ?
Data returned: 0.0

Data request: Per the records of this test, what outcome belongs to CCN1CCN(C(c2cccnc2)c2cc(Cl)c3cccnc3c2O)CC1 (stereo not drawn) ?
Data returned: 0.0

Data request: Per the records of this test, what outcome belongs to "CN(CCC#N)c1ncnc2scc(-c3ccccc3)c12" ?
Data returned: 0.0

Data request: Per the records of this test, what outcome belongs to Cc1ccc(N2C(=O)c3ccccc3C2(O)c2ncc[nH]2)cc1 (stereo not drawn) ?
Data returned: 0.0

Data request: Per the records of this test, what outcome belongs to "O=C(Nc1ccccc1)c1cccnc1Nc1ccccc1" ?
Data returned: 0.0

Data request: Per the records of this test, what outcome belongs to "CCOC(=O)Cn1c(CN(Cc2ccccc2)Cc2ccccc2)nc2c1c(=O)[nH]c(=O)n2C" ?
Data returned: 0.0

Data request: Per the records of this test, what outcome belongs to "Cc1ccnc(NC(=O)c2ccc(NC(=O)c3ccco3)cc2)c1" ?
Data returned: 0.0

Data request: Per the records of this test, what outcome belongs to "Cc1cc(=O)n2c3c(cccc13)CCC2" ?
Data returned: 0.0

Data request: Per the records of this test, what outcome belongs to "CCOCCCNC(=O)Cc1cc(=O)[nH]c(=O)[nH]1" ?
Data returned: 0.0

Data request: Per the records of this test, what outcome belongs to COc1ccc(/C(O)=C2\C(=O)C(=O)N(Cc3ccco3)C2c2ccc(OC)cc2OC)cc1 (stereo not drawn) ?
Data returned: 0.0

----------
TARGET ENTITY: Cytochrome P450 2C9 (Homo sapiens)
PROTOCOL TEXT: blockers of cytochrome P450 2C9 activity – biochemical, luminescence, ADME assay, primary screen (AID 777)
CONDITION DESCRIPTION: CYP2C9 Supersomes, luciferin-H conversion, at 5 µM, active compounds read high
Out of some 96,000 compounds screened, about 19,000 (20%) were called active. These entries were drawn from the full list.
PARAMETER MEASURED: inhibition (%)
// note: answer is a bare numeric in %

Data request: Let me know recorded inhibition for "CCN(CC)S(=O)(=O)c1cccc(C(=O)Nc2ccccc2)c1" , thanks.
Data returned: 38.7

Data request: Let me know recorded inhibition for "O=P(O)(CP(=O)(c1ccccc1)c1ccccc1)c1ccccc1O" , thanks.
Data returned: -5.8

Data request: Let me know recorded inhibition for "Cn1c(C(=O)NCCN2CCc3ccccc3C2)cc2c(=O)[nH]c3ccccc3c21" , thanks.
Data returned: 20

Data request: Let me know recorded inhibition for "Cc1ccc2nc3n(c(=O)c2c1)CCC3" , thanks.
Data returned: 21

Data request: Let me know recorded inhibition for CCOC(=O)C1=C(c2ccccc2)N=C2SCC(=O)N2C1c1ccc(O)c(OC)c1 (stereo unspecified) , thanks.
Data returned: 33.1

Data request: Let me know recorded inhibition for "CCn1nc(NC(=O)c2ccco2)c2cc3ccc(C)cc3nc21" , thanks.
Data returned: 19.8

Data request: Let me know recorded inhibition for "CC(C)(C)Cc1nnc(NC(=O)c2cc(-c3ccccc3)nc3ccccc23)s1" , thanks.
Data returned: 11.3

Data request: Let me know recorded inhibition for "Cc1c(CN2CCC(C)CC2)c(=O)n(-c2ccccc2)n1C" , thanks.
Data returned: -8

Data request: Let me know recorded inhibition for "COc1ccc(C)cc1S(=O)(=O)NCCc1ccccc1" , thanks.
Data returned: 75.9

Data request: Let me know recorded inhibition for "CSc1cc(C)n(-c2ccccc2C)c(=S)c1C(C)=O" , thanks.
Data returned: 14.1

Data request: Let me know recorded inhibition for CCOC(=O)c1[nH]c2c(c1C)C(=O)CC(c1ccc(N(C)C)cc1)C2 (stereo unspecified) , thanks.
Data returned: 36.2

Data request: Let me know recorded inhibition for "Cn1c(=NC(=O)c2ccco2)sc2cccc(F)c21" , thanks.
Data returned: 1

Data request: Let me know recorded inhibition for NC(=O)C1CCN(C2OC(=O)c3ccccc32)CC1 (stereo unspecified) , thanks.
Data returned: -3.4

Data request: Let me know recorded inhibition for "CCOC(=O)N1CCC(NC(=O)Cn2cc3c(n2)CCCCC3)CC1" , thanks.
Data returned: -10.8

Data request: Let me know recorded inhibition for "Cc1cccc(NC(=O)CSc2nnc(-c3ccco3)o2)c1" , thanks.
Data returned: 29.1

Data request: Let me know recorded inhibition for "Cc1ccc(-c2cc(C(=O)Nc3nn[nH]n3)c3ccccc3n2)c(C)c1" , thanks.
Data returned: 23.9

Data request: Let me know recorded inhibition for "c1ccc(CCc2nc(-c3ccncc3)no2)cc1" , thanks.
Data returned: 93

Data request: Let me know recorded inhibition for "O=C1c2ccccc2C(=O)N1CCCc1nc(-c2ccccc2)no1" , thanks.
Data returned: 24.2

Data request: Let me know recorded inhibition for "O=C(NC1=NCCS1)c1ccc(Cl)s1" , thanks.
Data returned: 3.9

Data request: Let me know recorded inhibition for CC1CCc2c(sc(NC(=O)c3ccc(Cn4cc(Br)cn4)o3)c2C(N)=O)C1 (stereo unspecified) , thanks.
Data returned: 81.5

Data request: Let me know recorded inhibition for "C=CCNc1nc(N)c(C(=C(C#N)C#N)c2ccccc2)s1" , thanks.
Data returned: 69.6

Data request: Let me know recorded inhibition for CN1CCN(C(=O)C2C3C=CC(C3)C2C(=O)O)CC1 (stereo unspecified) , thanks.
Data returned: -9.2

Data request: Let me know recorded inhibition for "COc1ccc(OC)c(NC(=O)CSc2nc3cccnc3n2C)c1" , thanks.
Data returned: 7.6

Data request: Let me know recorded inhibition for CCCOC(=O)c1[nH]c2c(c1C)C(=O)CC(c1cccs1)C2 (stereo unspecified) , thanks.
Data returned: 72.3

Data request: Let me know recorded inhibition for "CC(C)(O)C#Cc1ccc(C(=O)N2CCC(C(N)=O)(N3CCCCC3)CC2)cc1" , thanks.
Data returned: 27.6

Data request: Let me know recorded inhibition for "COc1ccc(C)cc1-n1nnnc1SCC(=O)c1cc(C)n(Cc2ccco2)c1C" , thanks.
Data returned: 27.2

Data request: Let me know recorded inhibition for "CCn1c(COc2ccccc2)nnc1SCC(=O)Nc1ccc2c(c1)OCCO2" , thanks.
Data returned: 6.8

Data request: Let me know recorded inhibition for "NC(=O)C1(N2CCCCC2)CCN(C(=S)Nc2ccc(Cl)cc2)CC1" , thanks.
Data returned: 20.5

Data request: Let me know recorded inhibition for "CCN(CC)S(=O)(=O)c1cccc(C(=O)NCC(=O)OCC(=O)NCc2ccccc2)c1" , thanks.
Data returned: 63.3

Data request: Let me know recorded inhibition for "CCc1nc(N2CCN(c3nc(C)cc(C)n3)CC2)c2oc3ccccc3c2n1" , thanks.
Data returned: 11.3

Data request: Let me know recorded inhibition for "Cc1nnc(SCc2cc(=O)[nH]c(N3CCN(Cc4ccccc4)CC3)n2)s1" , thanks.
Data returned: 56.4

Data request: Let me know recorded inhibition for "COc1cc(Cl)c(C)cc1NC(=O)CSc1nnc(-c2ccco2)n1CC(C)C" , thanks.
Data returned: 82.6

Data request: Let me know recorded inhibition for "O=C(Nc1ccc(Br)c2cccnc12)c1ccc(Cn2cc([N+](=O)[O-])cn2)o1" , thanks.
Data returned: -72.9

Data request: Let me know recorded inhibition for Cc1ccccc1N1C(=O)C2ON(c3ccccc3)C(c3ccncc3)C2C1=O (stereo unspecified) , thanks.
Data returned: 65.9

Data request: Let me know recorded inhibition for "N/C(=N\OC(=O)c1cc(-c2ccccc2)nc2ccccc12)c1ccncc1" , thanks.
Data returned: 97.7

Data request: Let me know recorded inhibition for COc1cc(C2C(C(=O)Nc3ccccc3OC)=C(C)Nc3ncnn32)ccc1O (stereo unspecified) , thanks.
Data returned: 12.1

Data request: Let me know recorded inhibition for "O=C(CSc1nnc(-c2ccco2)n1Cc1ccccc1)NC(=O)NCc1ccco1" , thanks.
Data returned: 29.5

Data request: Let me know recorded inhibition for "COc1ccccc1NC(=O)CSc1nc2sc(C)c(C)c2c(=O)n1Cc1ccco1" , thanks.
Data returned: 93.8

Data request: Let me know recorded inhibition for "COc1ccc(C)cc1S(=O)(=O)NC1CCCCC1" , thanks.
Data returned: 22.8

Data request: Let me know recorded inhibition for COc1cc(C2C3C(=O)N(c4ccccc4)C(=O)C3ON2c2ccccc2)ccc1O (stereo unspecified) , thanks.
Data returned: 69.1

Data request: Let me know recorded inhibition for "COCCNS(=O)(=O)c1cc(Br)ccc1OC" , thanks.
Data returned: -13.7

Data request: Let me know recorded inhibition for "O=C(Cc1ncc(C(F)(F)F)cc1Cl)Nc1cccc(Br)c1" , thanks.
Data returned: 24.9

Data request: Let me know recorded inhibition for "CCN(c1ccccc1)S(=O)(=O)c1cccc(C(=O)O)c1" , thanks.
Data returned: 33.3

Data request: Let me know recorded inhibition for "CCOC(=O)c1sc(NC(=O)CSc2ncccn2)c(C#N)c1C" , thanks.
Data returned: 45.3

Data request: Let me know recorded inhibition for "CCCC(=O)N=c1sc2cccc(F)c2n1C" , thanks.
Data returned: 14.7

Data request: Let me know recorded inhibition for "O=C(O)c1ccc(COCC(F)(F)F)cc1" , thanks.
Data returned: -1.6
